# systemTested: Melanocortin receptor 5 (Homo sapiens, UniProt P33032)
# Sequence (P33032 whole entry): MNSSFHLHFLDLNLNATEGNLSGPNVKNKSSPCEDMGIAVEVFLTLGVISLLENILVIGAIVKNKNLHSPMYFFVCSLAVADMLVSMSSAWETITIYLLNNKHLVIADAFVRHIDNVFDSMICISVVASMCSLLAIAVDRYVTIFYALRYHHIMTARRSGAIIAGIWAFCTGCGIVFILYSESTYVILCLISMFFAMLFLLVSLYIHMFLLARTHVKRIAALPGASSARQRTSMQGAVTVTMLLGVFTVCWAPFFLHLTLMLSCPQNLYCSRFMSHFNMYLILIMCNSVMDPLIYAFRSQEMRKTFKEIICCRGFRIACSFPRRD
# protocolText: Functional activity as concentration at 50% maximum cAMP accumulation in human […] (MC5R) receptor
readoutName: EC50 (nM)

* O=C(N[C@H](Cc1ccc(Cl)cc1)C(=O)N1CCC(Cn2cncn2)(C2CCCCC2)CC1)[C@H]1Cc2ccccc2CN1 | 737

---

Quick note: these are IC50 numbers for system: Melanocortin receptor 4 (Homo sapiens, UniProt P32245)
Sequence (P32245 whole entry): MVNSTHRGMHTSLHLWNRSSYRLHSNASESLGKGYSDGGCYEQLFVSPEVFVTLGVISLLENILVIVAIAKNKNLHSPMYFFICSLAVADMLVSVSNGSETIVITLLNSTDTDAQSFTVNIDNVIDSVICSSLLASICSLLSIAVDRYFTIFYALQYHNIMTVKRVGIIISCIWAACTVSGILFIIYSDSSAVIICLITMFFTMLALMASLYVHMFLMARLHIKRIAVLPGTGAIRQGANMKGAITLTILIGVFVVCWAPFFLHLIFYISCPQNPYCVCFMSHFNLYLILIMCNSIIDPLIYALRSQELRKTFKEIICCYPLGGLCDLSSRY
readoutName: IC50 (µM)

• CS(=O)(=O)N1CC2(CCN(C(=O)[C@@H](Cc3ccc4ccccc4c3)NC(=O)[C@@H](N)Cc3cnc[nH]3)CC2)c2ccccc21 = 0.108
• O=C(N[C@H](Cc1ccc(Cl)cc1)C(=O)N1CCC(Cc2nnn[nH]2)(C2CCCCC2)CC1)[C@H]1Cc2ccccc2CN1 = 0.238

---

# protocolText: Evaluated for half life in dog at dose 0.2 mg/kg (intravenous) and 0.5 mg/kg administered orally
# Format: ADME, organism-based, Canis lupus familiaris
# conditionSet: in vivo
readoutName: half-life (h)

• O=C(N[C@H](Cc1ccc(Cl)cc1)C(=O)N1CCC(Cn2cncn2)(C2CCCCC2)CC1)[C@H]1Cc2ccccc2CN1 = 1.2

---

# protocolText: Evaluated for Plasma clearance in dog at dose 0.2 mg/kg (intravenous) and 0.5 mg/kg administered orally
# Format: ADME, organism-based, Canis lupus familiaris
readoutName: clearance (mL/min/kg)

• O=C(N[C@H](Cc1ccc(Cl)cc1)C(=O)N1CCC(Cn2cncn2)(C2CCCCC2)CC1)[C@H]1Cc2ccccc2CN1 = 27.6

---

# protocolText: Percent bioavailability in rat evaluated at a dose 1 mg/kg (intravenous) and 10 mg/kg administered orally and was evaluated for
# Format: ADME, organism-based
# conditionSet: in vivo, po
readoutName: bioavailability (%)

- O=C(N[C@H](Cc1ccc(Cl)cc1)C(=O)N1CCC(Cn2cncn2)(C2CCCCC2)CC1)[C@H]1Cc2ccccc2CN1: 14

---

# systemTested: Melanocortin receptor 4 (Rattus norvegicus, UniProt P70596)
# Sequence (P70596 whole entry): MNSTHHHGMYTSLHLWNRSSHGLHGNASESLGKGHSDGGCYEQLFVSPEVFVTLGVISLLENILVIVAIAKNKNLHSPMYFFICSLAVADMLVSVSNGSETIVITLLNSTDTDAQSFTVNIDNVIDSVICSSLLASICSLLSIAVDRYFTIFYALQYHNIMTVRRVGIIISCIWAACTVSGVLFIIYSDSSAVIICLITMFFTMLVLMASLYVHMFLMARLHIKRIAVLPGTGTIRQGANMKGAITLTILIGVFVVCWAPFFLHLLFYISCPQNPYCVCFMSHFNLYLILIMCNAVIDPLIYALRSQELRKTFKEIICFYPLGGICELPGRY
# protocolText: Functional activity as concentration at 50% maximum cAMP accumulation in rat Melanocortin-4 receptor (rMC4R)
readoutName: EC50 (nM)

* O=C(N[C@H](Cc1ccc(Cl)cc1)C(=O)N1CCC(Cn2cncn2)(C2CCCCC2)CC1)[C@H]1Cc2ccccc2CN1 | 2.9

---

# systemTested: Melanocortin receptor 5 (Homo sapiens, UniProt P33032)
# protocolText: Evaluated for Functional Activity at MC5R as effective concentration at 50% maximum CMP accumulation
pEC50: −log10 of the molar value.
readoutName: pEC50

- Cn1nnc(CC2(C3CCCCC3)CCN(C(=O)[C@@H](Cc3ccc(Cl)cc3)NC(=O)[C@H]3Cc4ccccc4CN3)CC2)n1: 6.00
- O=C(N[C@H](Cc1ccc(Cl)cc1)C(=O)N1CCC(Cn2cncn2)(C2CCCCC2)CC1)[C@H]1Cc2ccccc2CN1: 6.13
- Cn1nnnc1CC1(C2CCCCC2)CCN(C(=O)[C@@H](Cc2ccc(Cl)cc2)NC(=O)[C@H]2Cc3ccccc3CN2)CC1: 6.90
- O=C(N[C@H](Cc1ccc(Cl)cc1)C(=O)N1CCC(Cn2cncn2)(C2CCCCC2)CC1)[C@@H]1Cc2ccccc2CN1: 6.57

---

# systemTested: UniProt P41968
# Sequence (P41968 whole entry): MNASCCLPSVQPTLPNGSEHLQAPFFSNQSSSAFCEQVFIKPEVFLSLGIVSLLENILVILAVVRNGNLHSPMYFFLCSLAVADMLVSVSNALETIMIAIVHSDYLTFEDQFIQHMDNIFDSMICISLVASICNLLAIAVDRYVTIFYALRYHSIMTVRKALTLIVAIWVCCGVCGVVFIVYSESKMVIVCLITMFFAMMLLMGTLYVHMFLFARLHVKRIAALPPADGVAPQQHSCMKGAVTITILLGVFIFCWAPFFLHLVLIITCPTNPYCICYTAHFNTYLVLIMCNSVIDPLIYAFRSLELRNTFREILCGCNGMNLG
# protocolText: Maximum percentage of cAMP accumulation at 10 uM relative to alpha-MSH at MC3R
# Type: functional
readoutName: Activity (%)

* O=C(N[C@H](Cc1ccc(Cl)cc1)C(=O)N1CCC(Cc2nnn[nH]2)(C2CCCCC2)CC1)[C@H]1Cc2ccccc2CN1 | 10
* O=C(N[C@H](Cc1ccc(Cl)cc1)C(=O)N1CCC(Cn2cncn2)(C2CCCCC2)CC1)[C@H]1Cc2ccccc2CN1 | 32
* O=C(N[C@@H](Cc1ccc(Cl)cc1)C(=O)N1CCC(Cn2cncn2)(C2CCCCC2)CC1)[C@@H]1Cc2ccccc2CN1 | 4
* Cn1nnnc1CC1(C2CCCCC2)CCN(C(=O)[C@@H](Cc2ccc(Cl)cc2)NC(=O)[C@H]2Cc3ccccc3CN2)CC1 | 50
* O=C(N[C@@H](Cc1ccc(Cl)cc1)C(=O)N1CCC(Cn2cncn2)(C2CCCCC2)CC1)[C@H]1Cc2ccccc2CN1 | 1
* O=C(N[C@H](Cc1ccc(Cl)cc1)C(=O)N1CCC(Cn2cncn2)(C2CCCCC2)CC1)[C@@H]1Cc2ccccc2CN1 | 7

---

# systemTested: Melanocortin receptor 4 (Homo sapiens)
# protocolText: Maximum percent cAMP accumulation at 10 uM relative to alpha-MSH at Melanocortin-4 receptor
# Assay type: functional
Some compounds, each annotated with its measured Activity.
readoutName: Activity (%)

* O=C(N[C@@H](Cc1ccc(Cl)cc1)C(=O)N1CCC(Cn2cncn2)(C2CCCCC2)CC1)[C@@H]1Cc2ccccc2CN1 | 34
* O=C(N[C@H](Cc1ccc(Cl)cc1)C(=O)N1CCC(Cc2nnn[nH]2)(C2CCCCC2)CC1)[C@H]1Cc2ccccc2CN1 | 79
* O=C(N[C@H](Cc1ccc(Cl)cc1)C(=O)N1CCC(Cn2cncn2)(C2CCCCC2)CC1)[C@@H]1Cc2ccccc2CN1 | 67
* Cn1nnc(CC2(C3CCCCC3)CCN(C(=O)[C@@H](Cc3ccc(Cl)cc3)NC(=O)[C@H]3Cc4ccccc4CN3)CC2)n1 | 87
* Cn1nnnc1CC1(C2CCCCC2)CCN(C(=O)[C@@H](Cc2ccc(Cl)cc2)NC(=O)[C@H]2Cc3ccccc3CN2)CC1 | 103
* O=C(N[C@@H](Cc1ccc(Cl)cc1)C(=O)N1CCC(Cn2cncn2)(C2CCCCC2)CC1)[C@H]1Cc2ccccc2CN1 | 9

---

# systemTested: Melanocortin receptor 5 (Homo sapiens, UniProt P33032)
# protocolText: Evaluated for binding affinity against human melanocortin 5 (hMC5R) receptor by displacing [125I]NDP-alpha-MSH radioligand expressed in CHO cells
readoutName: IC50 (nM)

* O=C(N[C@H](Cc1ccc(Cl)cc1)C(=O)N1CCC(Cn2cncn2)(C2CCCCC2)CC1)[C@H]1Cc2ccccc2CN1 | 326

---

# systemTested: Melanocortin receptor 3 (Rattus norvegicus, UniProt P32244)
# Sequence (P32244 whole entry): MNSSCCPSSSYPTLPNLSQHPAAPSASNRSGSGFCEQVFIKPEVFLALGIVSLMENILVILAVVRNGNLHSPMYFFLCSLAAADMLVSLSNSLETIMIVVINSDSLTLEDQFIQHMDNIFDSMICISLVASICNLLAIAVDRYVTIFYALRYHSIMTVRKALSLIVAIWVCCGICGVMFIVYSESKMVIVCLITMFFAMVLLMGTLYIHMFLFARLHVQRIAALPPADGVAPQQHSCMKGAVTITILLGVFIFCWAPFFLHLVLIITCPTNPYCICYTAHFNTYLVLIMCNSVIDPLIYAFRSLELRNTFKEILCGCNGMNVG
# protocolText: Functional activity as concentration at 50% maximum cAMP accumulation in rat Melanocortin-3 receptor (rMC3R)
pEC50: −log10 of the molar value.
readoutName: pEC50

• O=C(N[C@H](Cc1ccc(Cl)cc1)C(=O)N1CCC(Cn2cncn2)(C2CCCCC2)CC1)[C@H]1Cc2ccccc2CN1 = 5.88

---

# protocolText: Evaluated for % bioavailability in dogat a dose 0.2 mg/kg (intravenous) and 0.5 mg/kg administered orally
# Format: ADME, organism-based, Canis lupus familiaris
# conditionSet: dog, in vivo, po
readoutName: bioavailability (%)

* O=C(N[C@H](Cc1ccc(Cl)cc1)C(=O)N1CCC(Cn2cncn2)(C2CCCCC2)CC1)[C@H]1Cc2ccccc2CN1 | 16

---

# systemTested: Melanocortin receptor 4 (Homo sapiens, UniProt P32245)
# protocolText: Evaluated for Functional Activity at Melanocortin-4 receptor as effective concentration at 50% maximum CMP accumulation
# Lookup of reported EC50 keyed by entry
readoutName: EC50 (nM)

• Cn1nnc(CC2(C3CCCCC3)CCN(C(=O)[C@@H](Cc3ccc(Cl)cc3)NC(=O)[C@H]3Cc4ccccc4CN3)CC2)n1 = 9.6
• O=C(N[C@H](Cc1ccc(Cl)cc1)C(=O)N1CCC(Cc2nnn[nH]2)(C2CCCCC2)CC1)[C@H]1Cc2ccccc2CN1 = 771
• Cn1nnnc1CC1(C2CCCCC2)CCN(C(=O)[C@@H](Cc2ccc(Cl)cc2)NC(=O)[C@H]2Cc3ccccc3CN2)CC1 = 0.6
• CS(=O)(=O)N1CC2(CCN(C(=O)[C@@H](Cc3ccccc3)NC(=O)[C@@H](N)Cc3c[nH]cn3)CC2)c2ccccc21 = 500

---

# systemTested: Melanocortin receptor 5 (Homo sapiens)
# protocolText: Maximum percentage of cAMP accumulation at 10 uM relative to alpha-MSH at MC5R
# Assay type: functional
// returns no (0) unless Activity is strictly below 20%, in which case yes (1)

* O=C(N[C@@H](Cc1ccc(Cl)cc1)C(=O)N1CCC(Cn2cncn2)(C2CCCCC2)CC1)[C@H]1Cc2ccccc2CN1 | yes (1)
* O=C(N[C@H](Cc1ccc(Cl)cc1)C(=O)N1CCC(Cn2cncn2)(C2CCCCC2)CC1)[C@H]1Cc2ccccc2CN1 | no (0)
* O=C(N[C@H](Cc1ccc(Cl)cc1)C(=O)N1CCC(Cc2nnn[nH]2)(C2CCCCC2)CC1)[C@H]1Cc2ccccc2CN1 | yes (1)
* O=C(N[C@H](Cc1ccc(Cl)cc1)C(=O)N1CCC(Cn2cncn2)(C2CCCCC2)CC1)[C@@H]1Cc2ccccc2CN1 | yes (1)
* Cn1nnnc1CC1(C2CCCCC2)CCN(C(=O)[C@@H](Cc2ccc(Cl)cc2)NC(=O)[C@H]2Cc3ccccc3CN2)CC1 | no (0)
* O=C(N[C@@H](Cc1ccc(Cl)cc1)C(=O)N1CCC(Cn2cncn2)(C2CCCCC2)CC1)[C@@H]1Cc2ccccc2CN1 | yes (1)
